The values you see were collected from paper PMC11062899.

Assay: Metabolic stability in rat liver microsomes (RLMs)
Details: rat, microsomes, pH 7.4, RLM CL, rat liver microsomes, individual replicates R1-R3, incubation volume 400 ul, protein 0.5 mg/ml
experimentalReadout: microsomal CLint at 10 μM (µL/min/mg)
Just the number please, in µL/min/mg, no unit attached.

Task: Which microsomal CLint at 10 μM is reported for this compound? C[C@]12CC[C@H]3[C@@H](CCC4=CC(=O)CC[C@@]43C)[C@@H]1CC[C@@H]2O [Testosterone, reference compound]
Result: 626

----------
Residual thrombin activity: Equilibrated sample listing for selected molecules.
Target: UniProt:P00734
Experiment: Sub-library screen for active and permeable cyclic peptides (PAMPA plus thrombin inhibition)
Type: biochemical
Settings: donor sample diluted to theoretical equilibrium (1 μM in assay); crude; slopes normalized to DMSO
Returns: the value as a bare number; no unit string appended.

Some solved cases for reference:
molecule | testResult
O=C1C[C@H]2CCCN2C(=O)[C@H](Cc2ccc(C(F)(F)F)cc2)NC(=O)[C@@H](NC(=O)c2ccc(Cl)s2)CCCSC/C=C/CSCCN1 [C3-X36-L4] | 102.0
O=C1C[C@H]2CCCN2C(=O)[C@H](Cc2ccc(C(F)(F)F)cc2)NC(=O)[C@@H](NC(=O)c2ccc(Cl)s2)CCSCc2ccccc2CSCCN1 [C2-X36-L6] | 97.9
O=C1CSCCNC(=O)C[C@H]2CCCN2C(=O)[C@@H](Cc2ccccc2)NC(=O)[C@@H](NC(=O)c2ccc(Cl)s2)CCSC1 [C2-X31-L7] | 101.7
Cc1cccc(C[C@@H]2NC(=O)[C@@H](NC(=O)c3ccc(Cl)s3)CCCSCC(=O)CSCCNC(=O)C[C@H]3CCCN3C2=O)c1 [C3-X37-L7] | 58.3
CN1C(=O)[C@@H](NC(=O)c2ccc(Cl)s2)CCSCc2cccc(c2)CSCCNC(=O)C[C@H]2CCCN2C(=O)[C@@H]1Cc1ccccc1 [C2-X32-L5] | 100.8
N#Cc1ccc(C[C@@H]2NC(=O)[C@@H](NC(=O)c3ccc(Cl)s3)CCSCc3ccc(cc3)CSCCNC(=O)C[C@H]3CCCN3C2=O)cc1 [C2-X35-L3] | 100.4

Task: For the molecule shown here, O=C1CSCCC[C@H](NC(=O)c2ccc(Cl)s2)C(=O)N[C@@H](Cc2ccccc2)C(=O)N2CCC[C@@H]2CC(=O)NCCSC1 [C3-X5-L7] , give the reported Residual thrombin activity: Equilibrated sample.
Result: 33.5

Task: # get_value(readout='Residual thrombin activity: Equilibrated sample', item= O=C1C[C@H]2CCCN2C(=O)[C@H](Cc2ccc(C(F)(F)F)cc2)NC(=O)[C@@H](NC(=O)c2ccc(Cl)s2)CCSCCS(=O)(=O)CCSCCN1 [C2-X36-L2] )
Result: 101.8

Task: Look up Residual thrombin activity: Equilibrated sample: O=C1C[C@H]2CCCN2C(=O)[C@H](Cc2ccc(C(F)(F)F)cc2)NC(=O)[C@@H](NC(=O)c2ccc(Cl)s2)CCCSCc2cccc(c2)CSCCN1 [C3-X36-L5]
Result: 108.0

Task: Can you share its Residual thrombin activity: Equilibrated sample? I mean this molecule: O=C1C[C@H]2CCCN2C(=O)[C@H](Cc2ccccc2)NC(=O)[C@@H](NC(=O)c2ccc(Cl)s2)CCSC/C=C/CSCCN1 [C2-X5-L4]
Result: 33.0

Task: Request the reported Residual thrombin activity: Equilibrated sample associated with N#Cc1ccc(C[C@@H]2NC(=O)[C@@H](NC(=O)c3ccc(Cl)s3)CCCSCc3cccc(c3)CSCCNC(=O)C[C@H]3CCCN3C2=O)cc1 [C3-X35-L5]
Result: 100.9
